Experiment Notes: recombinant barcode read abundance after kanamycin selection (control-corrected) (log10(CPM+1)); higher = more efficient recombination; sequences stand for … in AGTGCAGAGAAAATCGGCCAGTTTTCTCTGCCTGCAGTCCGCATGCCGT…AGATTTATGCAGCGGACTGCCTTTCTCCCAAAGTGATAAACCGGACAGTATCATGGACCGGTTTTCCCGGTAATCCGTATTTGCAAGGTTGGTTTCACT; site = the 11-nt target;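 note: IS621 recombinase and bridge RNA in Escherichia coli cells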
Provide the recorded recombinant barcode read abundance (log10) for the entries that follow.
Answer using only a numeral; do not append any unit.

Input: Which recombinant barcode read abundance (log10) value is on record for GCCATCTCTTGGGTTCTAACCTGTTGCCT (site GCCGTCTCTAG) ?
Output: 0.0992

Input: Entry TCGAAGCCTTGGGTTCTAACCTGTTGCCT (site TCGAATCCTAG) please
Output: 0.101

Input: Entry CCGACTCCTTGGGTTCTAACCTGTTGCCT (site CCGATTCCTAG) please
Output: 0.102
